system: U2OS; assay: Multiplex assay against U2OS; assay type: toxicity, cell-based; details: human, 12 h, 10 µM, compound concentration 10 uM, replicate 1
Label 1 when Population Healthy Nuclei (%) is at or above 60%; otherwise label -1.

Below, 5 compounds whose answers are already recorded.
1. COc1cc(C(=O)N(CCCc2ccccc2)Cc2ccc(CC(=O)O)cc2)cc(OC)c1C = 1
2. CN1CCN2c3ncccc3Cc3ccccc3C2C1 (stereo not drawn) = 1
3. C[C@@H]1C[C@H]2[C@@H]3CCC4=CC(=O)C=C[C@]4(C)[C@@]3(F)[C@@H](O)C[C@]2(C)[C@@]1(O)C(=O)CO = 1
4. CC(=O)NCCc1c(Cc2ccccc2)[nH]c2ccccc12 = 1
5. C[C@H]1[C@H]2CC[C@H]3[C@@H]4CC=C5C[C@@H](N(C)C)CC[C@]5(C)[C@H]4CC[C@]23CN1C = 1

hey, is Population Healthy Nuclei (%) for this one >= 60%? Cc1ccccc1C(=O)Nc1ccc(C(=O)N2CCCC(N(C)C)c3ccccc32)cc1.Cl (stereo not drawn)
-1

hey, is Population Healthy Nuclei (%) for this one >= 60%? O=C1COc2nccc(-c3ccccc3F)c2CN1Cc1cc(C(F)(F)F)cc(C(F)(F)F)c1
-1

---

tested on: HEK-293T; assay: Multiplex assay against HEK293T; type: toxicity, cell-based; details: human, 48 h, 10 µM, compound concentration 10 uM, replicate 1
Population Pyknosed Nuclei (%) values, listed per item
Enter your answer as a number in %; do not include the unit.

1) CN1CCN(c2nc3cc(C(F)(F)F)ccc3n3cccc23)CC1.O=C(O)/C=C\C(=O)O.O=C(O)/C=C\C(=O)O = 8
2) Cc1ccc(F)cc1C(=O)Nc1ccc(C(=O)N2Cc3cccn3Cc3ccccc32)c(Cl)c1 [LIXIVAPTAN] = 16
3) O=C(NCCO)c1cccc(-c2cc(Nc3ccc(OC(F)(F)F)cc3)ncn2)c1 = 10

Bench note: what Population Pyknosed Nuclei (%) did COc1c(C)cc(NC(=O)c2nn(Cc3ccc(F)cc3)c3c2CN(C(=O)c2ccc[nH]2)C[C@]3(C)C(N)=O)cc1C show?
15

Bench note: what Population Pyknosed Nuclei (%) did COc1cc(NC(=O)CCN2CCC(OC(=O)Nc3ccccc3-c3ccccc3)CC2)c(Cl)cc1CNC[C@H](O)c1ccc(O)c2[nH]c(=O)ccc12 [BATEFENTEROL] show?
16

Bench note: what Population Pyknosed Nuclei (%) did Oc1c(CN2CCN(c3ccccn3)CC2)cc(Cl)c2cccnc12 show?
31

Bench note: what Population Pyknosed Nuclei (%) did O=C1COc2nccc(-c3ccccc3F)c2CN1Cc1cc(C(F)(F)F)cc(C(F)(F)F)c1 show?
11

Bench note: what Population Pyknosed Nuclei (%) did COc1ccc2c(c1)C(C(=O)N(Cc1ccc(N(C)C)cc1)c1ccc(C(C)C)cc1)CCC2.Cl (stereo not drawn) show?
9

---

Population Membrane Permeable-Phenotype (%) values, listed per item
system: Fibroblast; assay: Multiplex assay against human fibroblast; format: toxicity, cell-based; details: 12 h, 10 µM, compound concentration 10 uM, replicate 1
Please append the unit to your numeric answer.

Here are 3 molecules together with their reported answers.
1. Oc1c(CN2CCN(c3ccccn3)CC2)cc(Cl)c2cccnc12 = 0%
2. CCCN1CCC[C@@H]2Cc3n[nH]cc3C[C@H]21.Cl [QUINPIROLE HYDROCHLORIDE] = 1%
3. CCOc1c2c(c(OCC)c3ncccc13)CN(c1ccc(CS(=O)(=O)NC(=O)Cc3ccccc3OC)cc1C)C2=O = 1%

Bench note: what Population Membrane Permeable-Phenotype (%) did Cc1ccccc1C(=O)Nc1ccc(C(=O)N2CCCC(N(C)C)c3ccccc32)cc1.Cl (centres undefined) show?
1%

---

test system: Fibroblast; assay: Multiplex assay against human fibroblast; assay type: toxicity, cell-based; conditions: 48 h, 1 µM, compound concentration 1 uM, replicate 1
QUANTITY KIND: Population Normal (%)
Enter your answer as a number in %; do not include the unit.

Here are 4 compounds together with their reported answers.
1. COc1c(C)cc(NC(=O)c2nn(Cc3ccc(F)cc3)c3c2CN(C(=O)c2ccc[nH]2)C[C@]3(C)C(N)=O)cc1C = 92
2. CSc1ccccc1N1CCN(CCCCCC(=O)NC2CCCc3ccccc32)CC1.Cl (configuration not stated) = 93
3. CCOc1c2c(c(OCC)c3ncccc13)CN(c1ccc(CS(=O)(=O)NC(=O)Cc3ccccc3OC)cc1C)C2=O = 96
4. c1cc(OCCCN2CCCCC2)ccc1CN1CCCCC1 [JNJ-5207852] = 97

Bench note: what Population Normal (%) did O=C(O)c1cc2ccccc2c(Cc2c(O)c(C(=O)O)cc3ccccc23)c1O [PAMOIC ACID] show?
95

Bench note: what Population Normal (%) did Cc1ccc(/C(=C\CN2CCCC2)c2ccccn2)cc1 [TRIPROLIDINE] show?
96

Bench note: what Population Normal (%) did Cc1ccc(C(C)(O)c2nc3ccccc3s2)c(C)c1 (configuration not stated) show?
95

---

test system: Fibroblast; experiment: Multiplex assay against human fibroblast; format: toxicity, cell-based; conditions: 24 h, 10 µM, compound concentration 10 uM, replicate 1
Population Healthy Nuclei (%) values, listed per item
Please append the unit to your numeric answer.

1) C[C@H](NC(=O)c1c(C(F)F)nn(C)c1Oc1cccc(C(F)(F)F)c1)c1ccc(C(=O)O)cc1 [PALUPIPRANT] = 62%

Bench note: what Population Healthy Nuclei (%) did CC(C)(C)c1ccc(S(=O)(=O)Nc2ccc(Cl)cc2C(=O)c2cc[n+]([O-])cc2)cc1 [VERCIRNON] show?
66%

Bench note: what Population Healthy Nuclei (%) did N[C@@]1(C(=O)O)CO[C@H]2[C@H](C(=O)O)[C@H]21 [LY-379268] show?
75%

Bench note: what Population Healthy Nuclei (%) did CN(C)c1ccnc2sc3c(=O)n(N4CCCCCC4)cnc3c12 show?
58%

Bench note: what Population Healthy Nuclei (%) did CNC[C@H](O)c1ccc(O)c(O)c1 [EPINEPHRINE] show?
60%

Bench note: what Population Healthy Nuclei (%) did CCCN1CCC[C@@H]2Cc3n[nH]cc3C[C@H]21.Cl [QUINPIROLE HYDROCHLORIDE] show?
67%

Bench note: what Population Healthy Nuclei (%) did Cc1ccc(F)cc1C(=O)Nc1ccc(C(=O)N2Cc3cccn3Cc3ccccc32)c(Cl)c1 [LIXIVAPTAN] show?
63%

Bench note: what Population Healthy Nuclei (%) did Cc1nc2ccc(Oc3ccc(F)cc3)cc2c(=O)n1C[C@H]1CCCN(C(C)C)C1.Cl show?
58%

Bench note: what Population Healthy Nuclei (%) did O=S(=O)(c1ccccc1)c1cnc2c(N3CCNCC3)cccc2c1 [INTEPIRDINE] show?
65%

---

Population Healthy Nuclei (%) values, listed per item
system: U2OS; assay: Multiplex assay against U2OS; type: toxicity, cell-based; conditions: human, 12 h, 1 µM, compound concentration 1 uM, replicate 1
Please append the unit to your numeric answer.

Here are 8 molecules together with their reported answers.
1) Oc1c(CN2CCN(c3ccccn3)CC2)cc(Cl)c2cccnc12 = 64%
2) C[C@@H]1C[C@H]2[C@@H]3CCC4=CC(=O)C=C[C@]4(C)[C@@]3(F)[C@@H](O)C[C@]2(C)[C@@]1(O)C(=O)CO [DEXAMETHASONE] = 70%
3) CCCn1c(=O)c2[nH]c(C3CCCC3)nc2n(CCC)c1=O = 64%
4) COc1cc(NC(=O)CCN2CCC(OC(=O)Nc3ccccc3-c3ccccc3)CC2)c(Cl)cc1CNC[C@H](O)c1ccc(O)c2[nH]c(=O)ccc12 [BATEFENTEROL] = 49%
5) O=C(O)c1cc2ccccc2c(Cc2c(O)c(C(=O)O)cc3ccccc23)c1O [PAMOIC ACID] = 68%
6) O=C(NCCO)c1cccc(-c2cc(Nc3ccc(OC(F)(F)F)cc3)ncn2)c1 = 72%
7) CNC[C@H](O)c1ccc(O)c(O)c1 [EPINEPHRINE] = 56%
8) CCNC1(C(N)=O)CCN(c2ncnc3c2nc(-c2ccccc2Cl)n3-c2ccc(Cl)cc2)CC1 [OTENABANT] = 60%

Next, consider the following molecule.
Bench note: what Population Healthy Nuclei (%) did Cc1ccc(/C(=C\CN2CCCC2)c2ccccn2)cc1 [TRIPROLIDINE] show?
61%

---

test system: U2OS; assay: Multiplex assay against U2OS; assay type: toxicity, cell-based; settings: human, 24 h, 10 µM, compound concentration 10 uM, replicate 1
Population Healthy Nuclei (%) values, listed per item
Enter your answer as a number in %; do not include the unit.

1. C[C@H]1[C@H]2CC[C@H]3[C@@H]4CC=C5C[C@@H](N(C)C)CC[C@]5(C)[C@H]4CC[C@]23CN1C [CONESSINE] = 71
2. N#Cc1c(N)nc(SCc2csc(-c3ccc(Cl)cc3)n2)c(C#N)c1-c1ccc(OCCO)cc1 [CAPADENOSON] = 37
3. CCNC1(C(N)=O)CCN(c2ncnc3c2nc(-c2ccccc2Cl)n3-c2ccc(Cl)cc2)CC1 [OTENABANT] = 49

Bench note: what Population Healthy Nuclei (%) did CCCn1c(=O)c2[nH]c(C3CCCC3)nc2n(CCC)c1=O show?
64

Bench note: what Population Healthy Nuclei (%) did O=C(O)c1cc2ccccc2c(Cc2c(O)c(C(=O)O)cc3ccccc23)c1O [PAMOIC ACID] show?
76

Bench note: what Population Healthy Nuclei (%) did CNC[C@H](O)c1ccc(O)c(O)c1 [EPINEPHRINE] show?
50
